All figures here come from PubChem BioAssay AID1159580.

experiment: chemical genetic growth profiling, strain panel (AID 1159580);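 further: tested at 20 µM; growth read once vehicle control cultures reached saturation at 30 °C; 1 = growth at the plate median or of vehicle wells; lower values mean less growth of the strain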; conditions: S. cerevisiae deletion strains, growth OD, locus YOR083W, strain WHI5, stronger effect = lower value
Out of some 5,500 compounds screened, about 2,000 (36%) were called active. Roughly 18% stayed inconclusive and do not appear here. This is one part of the list.
Measure Name: normalized growth
Give a plain numeric answer without units written out.

Molecule: COc1cc(O)c(C(=O)/C=C/c2ccc(O)c(OC)c2)c(OC)c1
normalized growth: 0.98

# evaluate next
Give the measured normalized growth of CC1CC2C3CC(F)C4=CC(=O)C=CC4(C)C3(F)C(O)CC2(C)C1(O)C(=O)CO (stereo not drawn) .
0.965
